biological target: human muscarinic M3 receptor (Homo sapiens, UniProt P20309); construct: expressed in transfected cells; host or cells: CHO (CHO-K1) cells; test: hM3 competition binding assay (3H-NMS, CHO cell membranes); details: CHO cell membranes expressing human M3; 3H-NMS at 5×KD, 24 hr at RT; IC50 corrected by Cheng-Prussoff
Sequence (P20309 whole entry): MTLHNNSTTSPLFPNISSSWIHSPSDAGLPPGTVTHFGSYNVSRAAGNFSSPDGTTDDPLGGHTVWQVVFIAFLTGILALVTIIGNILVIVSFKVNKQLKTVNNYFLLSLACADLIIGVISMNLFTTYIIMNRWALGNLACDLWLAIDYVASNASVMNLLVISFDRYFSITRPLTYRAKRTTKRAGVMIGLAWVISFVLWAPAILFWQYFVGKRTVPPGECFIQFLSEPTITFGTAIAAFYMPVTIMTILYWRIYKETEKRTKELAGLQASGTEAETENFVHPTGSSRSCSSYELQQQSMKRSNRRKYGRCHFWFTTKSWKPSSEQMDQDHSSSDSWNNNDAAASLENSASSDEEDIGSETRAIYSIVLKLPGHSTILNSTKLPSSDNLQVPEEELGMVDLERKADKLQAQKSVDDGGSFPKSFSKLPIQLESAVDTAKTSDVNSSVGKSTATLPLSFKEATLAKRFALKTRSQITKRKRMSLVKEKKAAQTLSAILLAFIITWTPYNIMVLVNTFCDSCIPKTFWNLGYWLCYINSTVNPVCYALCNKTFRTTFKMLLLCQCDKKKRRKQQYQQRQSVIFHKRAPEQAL
endpoint: Ki (nM)

Check out these entries, answers already filled in.
CN(CCCCCCCCCN1CCC(OC(=O)Nc2ccccc2-c2ccccc2)CC1)Cc1cccc(F)c1O = 0.638
O=C(Cc1ccc(O)c(F)c1)NCCCCCCCCCN1CCC(OC(=O)Nc2ccccc2-c2ccccc2)CC1 = 1.07

1: O=C(Nc1ccccc1-c1ccccc1)OC1CCN(CCCCCCCCCNC(=O)c2ccc(O)cc2F)CC1
2: CN(CCCCCCCCCN1CCC(OC(=O)Nc2ccccc2-c2ccccc2)CC1)C(=O)c1cc(Cl)cc(Cl)c1O
Query string: Pick one: 1 or 2 . Which one has the lower reported Ki? Answer by stating the label of the chosen item.
Result string: 1

* * *

target: human muscarinic M3 receptor (Homo sapiens); construct: expressed in transfected cells; host or cells: CHO (CHO-K1) cells; assay: Cell based potency assessment, hM3 β-lactamase assay (CHO cell β-lactamase); conditions: CHO cells recombinantly expressing human M3, NFAT-β-lactamase reporter; inhibition of 80 nM carbamyl choline signal, 4 h; IC50 converted by Cheng-Prusoff
pKi: −log10 of the molar value.
endpoint: pKi

O=C(Nc1ccccc1-c1ccccc1)OC1CCN(CCCCCCCCCNC(=O)c2ccc(O)c(Cl)c2)CC1 = 10.16

I: O=C(Nc1ccccc1-c1ccccc1)OC1CCN(CCCCCCCCCNC(=O)c2cc(Cl)c(O)c(Cl)c2)CC1
II: O=C(Cc1ccc(O)c(Cl)c1)NCCCCCCCCCN1CCC(OC(=O)Nc2ccccc2-c2ccccc2)CC1
III: O=C(Nc1ccccc1-c1ccccc1)OC1CCN(CCCCCCCCCNC(=O)c2ccc(O)c(F)c2)CC1
Query string: Please order the records by their reported pKi, lowest number first. Your answer should be the labels, listed in the requested order.
Result string: I, III, II
(I: 9.07, III: 9.65, II: 10.38)

* * *

target: human muscarinic M3 receptor (Homo sapiens, UniProt P20309); construct: expressed in transfected cells; host or cells: CHO (CHO-K1) cells; assay: hM3 competition binding assay (3H-NMS, CHO cell membranes); conditions: CHO cell membranes expressing human M3; 3H-NMS at 5×KD, 24 hr at RT; IC50 corrected by Cheng-Prussoff
pKi: −log10 of the molar value.
endpoint: pKi

CN(CCCCCCCCCN1CCC(OC(=O)Nc2ccccc2-c2ccccc2)CC1)Cc1ccc(F)c(O)c1 = 9.63

a: O=C(Nc1ccccc1-c1ccccc1)OC1CCN(CCCCCCCCCNCc2cc(Cl)c(O)c(Cl)c2)CC1
b: CN(CCCCCCCCCN1CCC(OC(=O)Nc2ccccc2-c2ccccc2)CC1)Cc1cccc(O)c1F
c: CN(CCCCCCCCCN1CCC(OC(=O)Nc2ccccc2-c2ccccc2)CC1)C(=O)c1cc(Cl)ccc1O
d: CN(CCCCCCCCCN1CCC(OC(=O)Nc2ccccc2-c2ccccc2)CC1)Cc1cc(F)cc(F)c1O
Query string: Rank order required: pKi, descending. Your answer should be the labels, listed in the requested order.
Result string: b, d, a, c

I: O=C(Nc1ccccc1-c1ccccc1)OC1CCN(CCCCCCCCCNC(=O)c2ccc(Cl)c(O)c2)CC1
II: O=C(Nc1ccccc1-c1ccccc1)OC1CCN(CCCCCCCCCNC(=O)c2ccc(O)c(F)c2F)CC1
Query string: Pick one: I or II . Which one has the lower reported pKi? Answer by stating the label of the chosen item.
Result string: II

* * *

target: human muscarinic M3 receptor (Homo sapiens); construct: expressed in transfected cells; host or cells: CHO (CHO-K1) cells; test: Cell based potency assessment, hM3 β-lactamase assay (CHO cell β-lactamase); conditions: CHO cells recombinantly expressing human M3, NFAT-β-lactamase reporter; inhibition of 80 nM carbamyl choline signal, 4 h; IC50 converted by Cheng-Prusoff
pKi: −log10 of the molar value.
endpoint: pKi

Check out these entries, answers already filled in.
O=C(Nc1ccccc1-c1ccccc1)OC1CCN(CCCCCCCCCNC(=O)c2ccc(F)cc2O)CC1 = 8.35
O=C(Nc1ccccc1-c1ccccc1)OC1CCN(CCCCCCCCCNC(=O)c2cc(Cl)ccc2O)CC1 = 7.77

1: O=C(Nc1ccccc1-c1ccccc1)OC1CCN(CCCCCCCCCNCc2cc(F)ccc2O)CC1
2: O=C(Nc1ccccc1-c1ccccc1)OC1CCN(CCCCCCCCCNCc2cccc(O)c2F)CC1
3: O=C(Nc1ccccc1-c1ccccc1)OC1CCN(CCCCCCCCCNC(=O)c2ccc(O)c(F)c2F)CC1
4: O=C(Nc1ccccc1-c1ccccc1)OC1CCN(CCCCCCCCCNC(=O)c2cccc(F)c2O)CC1
5: O=C(Nc1ccccc1-c1ccccc1)OC1CCN(CCCCCCCCCNC(=O)c2cc(F)ccc2O)CC1
Query string: Rank order required: pKi, descending. Your answer should be the labels, listed in the requested order.
Result string: 3, 2, 1, 4, 5
(3: 9.56, 2: 9.08, 1: 8.79, 4: 8.57, 5: 8.06)

P: O=C(Nc1ccccc1-c1ccccc1)OC1CCN(CCCCCCCCCNCc2ccc(O)c(F)c2)CC1
Q: O=C(Nc1ccccc1-c1ccccc1)OC1CCN(CCCCCCCCCNCc2cc(F)cc(Cl)c2O)CC1
R: CN(CCCCCCCCCN1CCC(OC(=O)Nc2ccccc2-c2ccccc2)CC1)C(=O)Cc1ccc(O)c(F)c1
S: O=C(Nc1ccccc1-c1ccccc1)OC1CCN(CCCCCCCCCNCc2cc(F)c(O)c(F)c2)CC1
T: O=C(Nc1ccccc1-c1ccccc1)OC1CCN(CCCCCCCCCNC(=O)c2ccc(F)c(F)c2O)CC1
Query string: Rank order required: pKi, descending. Your answer should be the labels, listed in the requested order.
Result string: S, R, Q, P, T

a: O=C(Nc1ccccc1-c1ccccc1)OC1CCN(CCCCCCCCCNCc2cc(F)cc(F)c2O)CC1
b: O=C(Nc1ccccc1-c1ccccc1)OC1CCN(CCCCCCCCCNC(=O)c2ccc(F)c(O)c2)CC1
c: CN(CCCCCCCCCN1CCC(OC(=O)Nc2ccccc2-c2ccccc2)CC1)C(=O)c1ccc(O)c(Cl)c1
d: O=C(Nc1ccccc1-c1ccccc1)OC1CCN(CCCCCCCCCNCc2cc(Cl)c(O)c(Cl)c2)CC1
e: O=C(Nc1ccccc1-c1ccccc1)OC1CCN(CCCCCCCCCNCc2ccc(F)c(O)c2)CC1
Query string: Rank order required: pKi, descending. Your answer should be the labels, listed in the requested order.
Result string: d, c, a, b, e

* * *

target: human muscarinic M3 receptor (Homo sapiens); construct: expressed in transfected cells; host or cells: CHO (CHO-K1) cells; test: hM3 competition binding assay (3H-NMS, CHO cell membranes); settings: CHO cell membranes expressing human M3; 3H-NMS at 5×KD, 24 hr at RT; IC50 corrected by Cheng-Prussoff
pKi: −log10 of the molar value.
endpoint: pKi

Check out these entries, answers already filled in.
O=C(Nc1ccccc1-c1ccccc1)OC1CCN(CCCCCCCCCN(Cc2cccc(O)c2Cl)Cc2cccc(O)c2Cl)CC1 [Example 39] = 8.95
CN(CCCCCCCCCN1CCC(OC(=O)Nc2ccccc2-c2ccccc2)CC1)C(=O)Cc1cccc(O)c1 [Example 66] = 9.53
CN(CCCCCCCCCN1CCC(OC(=O)Nc2ccccc2-c2ccccc2)CC1)Cc1ccc(Cl)c(O)c1Cl [Example 54] = 9.63

a: O=C(Nc1ccccc1-c1ccccc1)OC1CCN(CCCCCCCCCNC(=O)c2ccc(F)c(O)c2)CC1 [Example 7]
b: CN(CCCCCCCCCN1CCC(OC(=O)Nc2ccccc2-c2ccccc2)CC1)Cc1cc(F)c(Cl)cc1O [Example 43]
c: O=C(Nc1ccccc1-c1ccccc1)OC1CCN(CCCCCCCCCNCc2cccc(O)c2Cl)CC1 [Example 5]
d: CN(CCCCCCCCCN1CCC(OC(=O)Nc2ccccc2-c2ccccc2)CC1)C(=O)c1ccc(O)c(Cl)c1 [Example 17]
Query string: Rank order required: pKi, descending. Your answer should be the labels, listed in the requested order.
Result string: b, c, a, d
(b: 9.53, c: 9.28, a: 9.00, d: 8.67)

* * *

target: human muscarinic M3 receptor (Homo sapiens); construct: expressed in transfected cells; host or cells: CHO (CHO-K1) cells; assay: hM3 competition binding assay (3H-NMS, CHO cell membranes); details: CHO cell membranes expressing human M3; 3H-NMS at 5×KD, 24 hr at RT; IC50 corrected by Cheng-Prussoff
endpoint: Ki (nM)

Check out these entries, answers already filled in.
O=C(Nc1ccccc1-c1ccccc1)OC1CCN(CCCCCCCCCNC(=O)c2ccc(O)c(F)c2)CC1 [Example 6] = 0.778
CN(CCCCCCCCCN1CCC(OC(=O)Nc2ccccc2-c2ccccc2)CC1)Cc1cc(F)ccc1O [Example 47] = 0.529
CN(CCCCCCCCCN1CCC(OC(=O)Nc2ccccc2-c2ccccc2)CC1)C(=O)c1ccc(Cl)cc1O [Example 60] = 3.61
O=C(Nc1ccccc1-c1ccccc1)OC1CCN(CCCCCCCCCNCc2cc(F)c(Cl)cc2O)CC1 [Example 33] = 6.04
O=C(Cc1ccc(O)c(Cl)c1)NCCCCCCCCCN1CCC(OC(=O)Nc2ccccc2-c2ccccc2)CC1 [Example 4] = 1.19

a: CN(CCCCCCCCCN1CCC(OC(=O)Nc2ccccc2-c2ccccc2)CC1)Cc1cc(F)c(O)c(F)c1 [Example 53]
b: CN(CCCCCCCCCN1CCC(OC(=O)Nc2ccccc2-c2ccccc2)CC1)C(=O)c1ccc(O)c(F)c1F [Example 64]
c: CN(CCCCCCCCCN1CCC(OC(=O)Nc2ccccc2-c2ccccc2)CC1)C(=O)c1ccc(Cl)c(O)c1 [Example 62]
d: O=C(Nc1ccccc1-c1ccccc1)OC1CCN(CCCCCCCCCNCc2cc(Cl)c(Cl)cc2O)CC1 [Example 28]
Query string: Rank order required: Ki, descending. Your answer should be the labels, listed in the requested order.
Result string: d, b, c, a
(d: 3.83 nM, b: 2 nM, c: 1.21 nM, a: 0.345 nM)

Taken from patent US20100016366A1.
